- target: High affinity nerve growth factor receptor (Homo sapiens)
- test_method_notes: Inhibition of TrkA (unknown origin) by cell based assay
quantity_kind: IC50 (nM)
Your answer is read as nM, so omit the unit and give the number.

stdin: Could you tell me which IC50 is on file for CC(=O)NCc1ncc(NC(=O)c2ccc(C(F)(F)F)c(-c3ccn(C)n3)c2)c(-c2ccccc2)n1 ?
stdout: 4

---

- target: Tumor necrosis factor receptor superfamily member 16 (Homo sapiens) (UniProt P08138)
- test_method_notes: Inhibition of mouse NGF binding to p75 (unknown origin) by SPR method relative to control
quantity_kind: Imax (%)
Report only the number, with the unit % understood.

stdin: Would you mind telling me what Imax value was observed for Cn1c2ccc(NC(=O)c3ccccc3)cc2c(=O)n2nc(C(=O)O)cc12 ?
stdout: 65

---

- target: UniProt P04629
- test_method_notes: Inhibition of His-tagged recombinant human TrkA using Alexa-Fluor tracer-236 incubated for 60 mins by TR-FRET based Lantha-screen Eu kinase binding assay
Measured IC50 of individual entries

{"columns": ["smiles_structure", "IC50"],
 "data": [
  ["COCc1ccc2cccc(NC(=O)Nc3c(C)c(-c4cnn(C)c4)nn3-c3ccccc3)c2c1", "< 100 nM"],
  ["COCCCc1cc(Cl)c(Cl)cc1NC(=O)Nc1c(C)c(-c2cnn(C)c2)nn1-c1ccccc1", "< 100 nM"],
  ["Cc1c(-c2cnn(C)c2)nn(-c2ccccc2)c1NC(=O)Nc1cc(C(F)(F)F)nn1-c1ccccc1", "< 100 nM"]
]}

stdin: Using the record for Cc1c(-c2cnn(C)c2)nn(-c2ccccc2)c1NC(=O)Nc1sc(C(F)(F)F)nc1-c1ccccc1 , report its IC50.
stdout: < 100 nM

---

- target: High affinity nerve growth factor receptor (Homo sapiens, UniProt P04629)
- Sequence (P04629 whole entry): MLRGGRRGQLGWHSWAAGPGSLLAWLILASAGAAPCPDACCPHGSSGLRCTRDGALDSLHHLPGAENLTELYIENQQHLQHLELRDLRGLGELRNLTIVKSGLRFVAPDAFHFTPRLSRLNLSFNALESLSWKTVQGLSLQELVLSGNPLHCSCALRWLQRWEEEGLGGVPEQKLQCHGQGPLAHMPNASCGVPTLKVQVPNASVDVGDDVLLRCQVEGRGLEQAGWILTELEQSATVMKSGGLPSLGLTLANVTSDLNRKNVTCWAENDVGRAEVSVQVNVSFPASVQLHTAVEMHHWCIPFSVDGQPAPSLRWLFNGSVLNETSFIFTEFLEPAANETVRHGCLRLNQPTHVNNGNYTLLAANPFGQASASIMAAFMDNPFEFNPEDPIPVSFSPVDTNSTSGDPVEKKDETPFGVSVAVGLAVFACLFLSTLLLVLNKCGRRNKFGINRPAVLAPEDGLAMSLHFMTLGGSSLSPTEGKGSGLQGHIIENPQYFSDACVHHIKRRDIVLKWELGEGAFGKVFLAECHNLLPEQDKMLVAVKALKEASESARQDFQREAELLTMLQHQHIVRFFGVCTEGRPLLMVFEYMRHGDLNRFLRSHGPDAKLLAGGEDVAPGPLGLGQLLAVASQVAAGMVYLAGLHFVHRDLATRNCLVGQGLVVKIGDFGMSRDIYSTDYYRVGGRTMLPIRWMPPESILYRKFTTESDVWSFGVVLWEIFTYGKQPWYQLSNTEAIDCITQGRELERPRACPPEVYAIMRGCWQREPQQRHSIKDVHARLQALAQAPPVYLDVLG
- test_method_notes: Inhibition of NGF-stimulated TrkA phosphorylation in human U2OS cells by beta-galactosidase reporter gene based PathHunter profiling assay
- Format: cell-based
quantity_kind: pIC50
In plain terms, pIC50 is the concentration in mol/L turned into minus its base-10 logarithm.

stdin: What value of pIC50 has been reported for the following molecule? O=C(O)c1ccc(Nc2cc(N3CCN(C4CCCCC4)CC3)c3noc4c3c2C(=O)c2ccccc2-4)cc1
stdout: 7.30

---

Quick reference: pIC50 of the listed items.
- target: Tumor necrosis factor receptor superfamily member 16 (Homo sapiens)
- Sequence (P08138 whole entry): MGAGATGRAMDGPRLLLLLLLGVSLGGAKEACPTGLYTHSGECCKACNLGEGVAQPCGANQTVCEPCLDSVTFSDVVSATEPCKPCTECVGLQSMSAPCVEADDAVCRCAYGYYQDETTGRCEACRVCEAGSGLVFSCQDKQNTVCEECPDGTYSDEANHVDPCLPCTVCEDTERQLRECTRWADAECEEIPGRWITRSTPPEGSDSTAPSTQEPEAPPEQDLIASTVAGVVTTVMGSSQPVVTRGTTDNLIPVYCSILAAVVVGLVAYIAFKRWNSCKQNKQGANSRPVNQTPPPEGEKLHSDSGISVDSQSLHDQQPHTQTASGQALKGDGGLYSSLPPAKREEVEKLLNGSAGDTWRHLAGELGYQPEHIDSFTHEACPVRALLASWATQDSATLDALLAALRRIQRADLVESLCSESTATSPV
On this scale, pIC50 is minus log10 of a concentration expressed in M (mol/L).

{"columns": ["smiles_structure", "target", "pIC50"],
 "data": [
  ["Cn1c2ccc(NC(=O)c3ccccc3)cc2c(=O)n2nc(C(=O)O)cc12", "Tumor necrosis factor receptor superfamily member 16 (Homo sapiens)", 3.96]
]}

As a next step, examine the molecule that follows.
stdin: What does the record list as pIC50 for Cc1cc2nc3c(=O)[nH]c(=O)nc-3n(C)c2cc1C=O ?
stdout: 3.61
